tested on: LLC tumors; assay: In vivo panning of T7 phage peptide library: phage recovered from irradiated LLC tumors; set-up: species or system mice; conditions: Experiment A; six rounds, 3 Gy
recorded.metric: Phage Recovered from LLC tumors (Frequency)

# substance, assay.value
rows = [
    ("SLRGDGSSV (Peptide that binds to LLC and/or GL261 tumors) [peptide isolated by in vivo panning]", "(28%)"),
    ("SVRGSGSGV (Peptide that binds to LLC and/or GL261 tumors) [peptide isolated by in vivo panning of a phage library]", "(28%)"),
    ("HVGGSSV (Peptide that binds to LLC and/or GL261 tumors) [peptide isolated by in vivo panning of a phage library]", "(28%)"),
    ("SVGSRV (Peptide that binds to LLC and/or GL261 tumors) [peptide isolated by in vivo panning of a phage library]", "(4%)"),
]
